Data origin: patent US10441562B2

# tested.target: UniProt P18031
# Sequence (P18031 1-435): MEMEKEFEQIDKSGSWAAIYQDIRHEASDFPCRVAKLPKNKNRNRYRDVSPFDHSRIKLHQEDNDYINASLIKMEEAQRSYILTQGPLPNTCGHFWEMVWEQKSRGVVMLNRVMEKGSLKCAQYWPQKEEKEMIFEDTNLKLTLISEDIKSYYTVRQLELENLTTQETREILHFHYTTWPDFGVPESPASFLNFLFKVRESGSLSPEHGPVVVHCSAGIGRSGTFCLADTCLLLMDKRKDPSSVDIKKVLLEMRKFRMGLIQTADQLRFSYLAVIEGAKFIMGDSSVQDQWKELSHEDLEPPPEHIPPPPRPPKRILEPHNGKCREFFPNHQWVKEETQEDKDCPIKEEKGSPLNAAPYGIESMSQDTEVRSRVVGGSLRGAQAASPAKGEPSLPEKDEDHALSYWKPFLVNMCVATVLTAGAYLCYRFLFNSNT
Catalogue of compounds with associated pIC50
Conceptually, pIC50 converts a concentration in mol/L into minus its log10.

Previously resolved entries follow.
smiles_input=COCOc1ccccc1[C@H]1C=C(CC/C=C(\C)CCC=C(C)C)C(=O)O1 measured=5.11
smiles_input=CC(C)=CCC/C(C)=C/CCC1=C[C@H](c2ccc([N+](=O)[O-])cc2)OC1=O measured=5.09
smiles_input=CC(C)=CCC/C(C)=C/CCC1=C[C@@H](c2ccc(C(C)(C)C)cc2)OC1=O measured=4.75
smiles_input=CC(C)=CCC/C(C)=C/CCC1=C[C@@H](c2ccc([N+](=O)[O-])cc2)OC1=O measured=5.01
smiles_input=CC(C)=CCC/C(C)=C/CCC1=C[C@H](c2ccc3ccccc3c2)OC1=O measured=4.88

INPUT: Provide value of pIC50 for this record tested with UniProt P18031: `CC(C)=CCC/C(C)=C/CCC1=C[C@@H](c2ccccc2O)OC1=O`
OUTPUT: 4.94

INPUT: Find the measured pIC50: item `CC(C)=CCC/C(C)=C/CC/C(=C/Cc1cc(O)ccc1O)C(=O)O` , target or system UniProt P18031.
OUTPUT: 4.89

====

# tested.target: aldose reductase (Homo sapiens)
pIC50: −log10 of the molar value.
Is pIC50 at least 5? Then yes. If not, no.

As a guide, the following entries are already answered.
molecule="CC(C)=CCC/C(C)=C/CCC1=C[C@@H](c2ccc3ccccc3c2)OC1=O [S17]" category_label=no
molecule="CC(C)=CCC/C(C)=C/CCC1=C[C@H](c2ccc(C(C)C)cc2)OC1=O [S8]" category_label=no
molecule="CC(C)=CCC/C(C)=C/CCC1=C[C@H](c2ccc3ccccc3c2)OC1=O [S2]" category_label=no
molecule="C/C(C=O)=C\\CC/C(C)=C/CC/C(=C/Cc1cc(O)ccc1O)C(=O)O [S35]" category_label=yes
molecule="CC(C)=CCC/C(C)=C/CCC1=C[C@@H](c2ccc(C(C)(C)C)cc2)OC1=O [S24]" category_label=yes
molecule="CC(C)=CCC/C(C)=C/CCC1=C[C@@H](c2ccccc2)OC1=O [S16]" category_label=no
molecule="CC(C)=CCC/C(C)=C/CCC1=C[C@H](c2cc(O)ccc2O)OC1=O [S13]" category_label=yes
molecule="C/C(=C\\CC/C(C)=C/CC/C(=C/Cc1cc(O)ccc1O)C(=O)O)CO [S33]" category_label=no

INPUT: Decide: is the reported value of pIC50 for CC(C)=CCC/C(C)=C/CCC1=C[C@H](c2c(F)cccc2F)OC1=O [S14] equal to or greater than 5?
OUTPUT: no

INPUT: Please tell me: is the molecule CC(C)=CCC/C(C)=C/CCC1=C[C@@H](c2ccc(C)cc2)OC1=O [S21] at or over 5 in terms of pIC50?
OUTPUT: no

INPUT: Kindly determine if pIC50 recorded for CC(C)=CCC/C(C)=C/CCC1=C[C@@H](c2c(F)cccc2F)OC1=O [S29] is above or exactly 5.
OUTPUT: no
